These entries and their values trace back to paper PMC6274786.

# Subject Of Test: human histamine H3R (Homo sapiens, UniProt Q9Y5N1)
# Construct: expressed in transfected cells
# Sequence (Q9Y5N1 whole entry): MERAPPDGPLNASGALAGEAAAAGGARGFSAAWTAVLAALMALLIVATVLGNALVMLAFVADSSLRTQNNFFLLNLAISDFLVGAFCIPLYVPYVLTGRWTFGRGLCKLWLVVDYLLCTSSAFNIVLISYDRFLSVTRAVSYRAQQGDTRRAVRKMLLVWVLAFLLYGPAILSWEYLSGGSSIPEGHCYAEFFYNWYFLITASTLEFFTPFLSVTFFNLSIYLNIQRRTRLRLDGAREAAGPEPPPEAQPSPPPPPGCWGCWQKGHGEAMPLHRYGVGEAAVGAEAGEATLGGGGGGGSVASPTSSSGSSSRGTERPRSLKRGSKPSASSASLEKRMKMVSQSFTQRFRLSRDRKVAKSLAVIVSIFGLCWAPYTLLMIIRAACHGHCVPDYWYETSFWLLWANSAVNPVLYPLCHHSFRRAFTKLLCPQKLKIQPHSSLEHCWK
# Measurement Notes: [3H]Nα-methylhistamine radioligand displacement assay, HEK-293 cell membranes
# Type: binding
# Study Conditions: mean with 95% confidence interval; read-out: In Vitro Affinity Ki (hH3R) in nM [CI]
As shown below, each of these molecules has a reported Ki value.
I only need the number, in nM, no unit after it.

Query: Given the entry `Fc1ccc(OCCCCCCN2CCCCCC2)cc1.O=C(O)C(=O)O` , report its measured Ki.
Result: 137

Query: Here is the next molecule: `Fc1ccc(OCCCCCCN2CCCCC2)cc1.O=C(O)C(=O)O`
Result: 115

Query: Here is the next molecule: CC1CCCN(CCCCCCOc2ccc(F)cc2)C1.O=C(O)C(=O)O (stereo not drawn)
Result: 83.6
